Values were extracted from ChEMBL document CHEMBL3881530.

Assay: Cmax in Sprague-Dawley rat at 1.6 mg/kg administered via oral gavage measured up to 4 hrs by LC/MS/MS analysis
Type: ADME, organism-based
Set-up: dose 1.6 mg/kg, route oral
Settings: in vivo
measurementType: Cmax (ng/mL)
Give a bare numeral; the unit ng/mL is implied.

Req: Which measured Cmax value corresponds to CN1Cc2c(Cl)cc(Cl)cc2C(c2cccc(S(=O)(=O)NCCN(CCNS(=O)(=O)c3cccc(C4CN(C)Cc5c(Cl)cc(Cl)cc54)c3)CCNS(=O)(=O)c3cccc(C4CN(C)Cc5c(Cl)cc(Cl)cc54)c3)c2)C1 (stereo unspecified) ?
Resp: 71

###

Assay: AUC in Sprague-Dawley rat at 1.5 mg/kg administered via oral gavage measured up to 4 hrs by LC/MS/MS analysis
Format: ADME, organism-based
Parameters: time < 4 hr, dose 1.5 mg/kg, route oral
Settings: in vivo
measurementType: AUC at 4 h

Req: Which measured AUC at 4 h value corresponds to "C/C(=C\c1cc(F)c(Oc2ccc(S(=O)(=O)NCCOCCOCCOCCNC(=O)[C@H](O)[C@@H](O)C(=O)NCCOCCOCCOCCNS(=O)(=O)c3ccc(Oc4c(F)cc(/C=C(\C)C(=O)N=C(N)N)cc4F)cc3)cc2)c(F)c1)C(=O)N=C(N)N" ?
Resp: < 4.4 ng·h/mL

###

The reader will find IC50 measurements below, all made with Sodium/hydrogen exchanger 2 (Homo sapiens).
Sequence (Q9UBY0 whole entry): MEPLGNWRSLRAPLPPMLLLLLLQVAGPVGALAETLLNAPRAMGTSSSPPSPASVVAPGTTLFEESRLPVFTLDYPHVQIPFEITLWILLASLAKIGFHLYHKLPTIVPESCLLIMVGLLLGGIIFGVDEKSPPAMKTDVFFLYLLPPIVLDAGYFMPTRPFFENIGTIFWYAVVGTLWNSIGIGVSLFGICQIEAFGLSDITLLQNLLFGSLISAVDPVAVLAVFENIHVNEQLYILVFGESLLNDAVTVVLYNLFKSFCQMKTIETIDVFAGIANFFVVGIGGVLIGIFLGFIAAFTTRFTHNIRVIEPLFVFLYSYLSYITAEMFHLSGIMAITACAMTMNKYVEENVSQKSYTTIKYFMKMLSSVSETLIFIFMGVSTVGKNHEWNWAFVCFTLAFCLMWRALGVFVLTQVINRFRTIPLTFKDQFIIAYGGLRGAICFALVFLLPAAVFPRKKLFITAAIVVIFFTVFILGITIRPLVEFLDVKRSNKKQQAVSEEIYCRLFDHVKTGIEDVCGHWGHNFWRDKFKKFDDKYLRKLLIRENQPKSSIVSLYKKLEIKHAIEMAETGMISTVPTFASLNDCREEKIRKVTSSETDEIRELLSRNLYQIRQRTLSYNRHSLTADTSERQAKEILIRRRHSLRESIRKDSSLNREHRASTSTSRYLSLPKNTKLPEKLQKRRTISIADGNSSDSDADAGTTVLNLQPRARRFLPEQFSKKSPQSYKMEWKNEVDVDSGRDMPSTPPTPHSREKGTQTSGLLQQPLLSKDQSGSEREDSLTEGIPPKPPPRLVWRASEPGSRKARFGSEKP
Give a bare numeral; the unit nM is implied.

testsmiles=Cc1ccc(F)cc1[C@@H]1C/C(=N\N=C(N)N)c2c(C)cccc2C1 measurementtype=IC50 unittag=nM val=430

Turning now to a further record.
Req: Which measured IC50 value corresponds to "C/C(=C\c1cccc(/C=C(\C)C(=O)NC(=N)N)c1)C(=O)N=C(N)N" ?
Resp: 70

###

Experiment: AUC in Sprague-Dawley rat at 1.3 mg/kg administered via oral gavage measured up to 4 hrs by LC/MS/MS analysis
Format: ADME, organism-based
Parameters: dose 1.3 mg/kg, time < 4 hr, route oral
Conditions: in vivo
measurementType: AUC at 4 h (ng·h/mL)
Give a bare numeral; the unit ng·h/mL is implied.

Req: Which measured AUC at 4 h value corresponds to CN1Cc2c(Cl)cc(Cl)cc2C(c2cccc(NS(=O)(=O)NCCP(=O)(O)O)c2)C1 (stereo unspecified) ?
Resp: 56

###

Experiment: Apparent permeability of the compound from apical to basolateral side at pH 7.4 after 3 hrs by PAMPA
Format: ADME
measurementType: Papp at 3 h (×10⁻⁶ cm/s)
Give a bare numeral; the unit ×10⁻⁶ cm/s is implied.

Req: Which measured Papp at 3 h value corresponds to "NC(N)=Nc1nc(-c2cccc(N3CCN(CCCC(=O)O)CC3)c2)c2cc(Cl)ccc2n1.O=C(O)C(F)(F)F" ?
Resp: 0.4

###

Assay: Cmax in Sprague-Dawley rat at 21 mg/kg administered via oral gavage measured up to 4 hrs by LC/MS/MS analysis
Assay type: ADME, organism-based
Design: dose 21 mg/kg, route oral
Settings: in vivo
measurementType: Cmax

Req: Which measured Cmax value corresponds to CN1Cc2c(Cl)cc(Cl)cc2C(c2cccc(S(=O)(=O)NCCOCCOCCOCCNC(=O)Nc3ccc(NC(=O)NCCOCCOCCOCCNS(=O)(=O)c4cccc([C@@H]5CN(C)Cc6c(Cl)cc(Cl)cc65)c4)cc3)c2)C1 (mixture of isomers) ?
Resp: < 2 ng/mL

###

Experiment: Cmax in Sprague-Dawley rat at 27 mg/kg administered via oral gavage measured up to 4 hrs by LC/MS/MS analysis
Type: ADME, organism-based
Set-up: dose 27 mg/kg, route oral
Conditions: in vivo
measurementType: Cmax

Req: Which measured Cmax value corresponds to CN1Cc2c(Cl)cc(Cl)cc2[C@H](c2ccc(S(=O)(=O)NCCOCCOCCOCCNC(=O)C(O)C(O)C(=O)NCCOCCOCCOCCNS(=O)(=O)c3ccc([C@@H]4CN(C)Cc5c(Cl)cc(Cl)cc54)cc3)cc2)C1 (single isomer, unassigned) ?
Resp: < 3.5 ng/mL

###

Target: Sodium/hydrogen exchanger 3 (Rattus norvegicus, UniProt P26433)
Sequence (P26433 whole entry): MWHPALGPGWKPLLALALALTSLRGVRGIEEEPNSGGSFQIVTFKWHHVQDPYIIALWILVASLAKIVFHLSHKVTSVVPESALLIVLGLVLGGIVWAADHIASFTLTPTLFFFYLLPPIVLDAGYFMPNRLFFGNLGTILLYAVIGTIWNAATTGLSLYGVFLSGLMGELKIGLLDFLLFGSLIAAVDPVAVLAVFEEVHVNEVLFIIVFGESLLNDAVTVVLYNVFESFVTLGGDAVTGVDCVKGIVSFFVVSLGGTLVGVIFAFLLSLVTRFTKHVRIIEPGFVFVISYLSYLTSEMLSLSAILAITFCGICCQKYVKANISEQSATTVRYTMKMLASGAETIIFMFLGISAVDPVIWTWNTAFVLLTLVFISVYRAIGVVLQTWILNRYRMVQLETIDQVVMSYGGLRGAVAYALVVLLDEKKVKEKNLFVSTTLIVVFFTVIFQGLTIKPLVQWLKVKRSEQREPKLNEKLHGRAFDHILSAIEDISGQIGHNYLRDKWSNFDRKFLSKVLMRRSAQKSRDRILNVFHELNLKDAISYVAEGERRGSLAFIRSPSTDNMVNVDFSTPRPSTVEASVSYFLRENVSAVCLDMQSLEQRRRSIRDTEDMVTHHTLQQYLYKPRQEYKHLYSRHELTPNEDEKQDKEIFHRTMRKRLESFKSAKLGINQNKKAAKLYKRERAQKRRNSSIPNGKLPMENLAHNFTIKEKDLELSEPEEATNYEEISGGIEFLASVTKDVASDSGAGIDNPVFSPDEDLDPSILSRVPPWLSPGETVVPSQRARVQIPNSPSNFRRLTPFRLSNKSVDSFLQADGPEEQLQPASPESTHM
Assay: Inhibition of rat NHE-3
pIC50: −log10 of the molar value.
measurementType: pIC50

Req: Which measured pIC50 value corresponds to N=C(N)NC(=O)c1cnn(-c2cccc3ncccc23)c1C1CC1 [ZONIPORIDE] ?
Resp: < 3.30

###

Here, each record is paired with measured Cmax data.
Experiment: Cmax in Sprague-Dawley rat at 2.2 mg/kg administered via oral gavage measured up to 4 hrs by LC/MS/MS analysis
Type: ADME, organism-based
Design: dose 2.2 mg/kg, route oral
Details: in vivo
Give a bare numeral; the unit ng/mL is implied.

compound=C/C(=C\c1cc(F)c(Oc2ccc(S(=O)(=O)NCCP(=O)(O)O)cc2)c(F)c1)C(=O)N=C(N)N measurementtype=Cmax val=9

Turning now to a further record.
Req: Which measured Cmax value corresponds to CN1Cc2c(Cl)cc(Cl)cc2C(c2cccc(NC(=O)N[C@@H](CC(=O)O)C(=O)O)c2)C1 (some centres not stated) ?
Resp: 2.4

###

Target: Sodium/hydrogen exchanger 2 (Oryctolagus cuniculus, UniProt P50482)
Sequence (P50482 whole entry): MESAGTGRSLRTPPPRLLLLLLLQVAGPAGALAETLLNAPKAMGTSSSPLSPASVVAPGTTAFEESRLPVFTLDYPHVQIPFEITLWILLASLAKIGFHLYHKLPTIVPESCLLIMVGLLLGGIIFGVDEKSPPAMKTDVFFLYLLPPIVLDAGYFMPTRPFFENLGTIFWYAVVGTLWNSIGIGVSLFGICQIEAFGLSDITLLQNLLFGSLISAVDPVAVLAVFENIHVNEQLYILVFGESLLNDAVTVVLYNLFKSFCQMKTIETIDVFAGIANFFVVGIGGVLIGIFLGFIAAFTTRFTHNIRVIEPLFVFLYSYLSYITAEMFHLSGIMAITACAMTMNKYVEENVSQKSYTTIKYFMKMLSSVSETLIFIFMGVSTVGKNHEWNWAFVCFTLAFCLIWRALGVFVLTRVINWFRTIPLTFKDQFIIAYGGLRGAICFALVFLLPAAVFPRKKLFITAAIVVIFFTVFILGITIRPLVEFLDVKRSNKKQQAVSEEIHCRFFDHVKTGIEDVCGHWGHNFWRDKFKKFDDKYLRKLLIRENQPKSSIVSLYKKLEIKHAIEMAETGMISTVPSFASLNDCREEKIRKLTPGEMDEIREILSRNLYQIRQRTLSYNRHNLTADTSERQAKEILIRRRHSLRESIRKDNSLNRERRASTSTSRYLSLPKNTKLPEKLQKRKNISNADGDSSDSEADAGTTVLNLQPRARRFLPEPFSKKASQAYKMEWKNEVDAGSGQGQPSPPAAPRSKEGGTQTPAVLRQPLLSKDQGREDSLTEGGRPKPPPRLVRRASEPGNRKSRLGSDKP
measurementType: pIC50
Value format note: pIC50 is -log10 of concentration (mol/L); just state the number.

Req: Which measured pIC50 value corresponds to "C/C(=C\c1cc(C)ccc1/C=C(\C)C(=O)NC(=N)N)C(=O)N=C(N)N" ?
Resp: 4.10

###

Here, each record is paired with measured IC50 data.
Target: Sodium/hydrogen exchanger 3 (Homo sapiens)
Sequence (P48764 whole entry): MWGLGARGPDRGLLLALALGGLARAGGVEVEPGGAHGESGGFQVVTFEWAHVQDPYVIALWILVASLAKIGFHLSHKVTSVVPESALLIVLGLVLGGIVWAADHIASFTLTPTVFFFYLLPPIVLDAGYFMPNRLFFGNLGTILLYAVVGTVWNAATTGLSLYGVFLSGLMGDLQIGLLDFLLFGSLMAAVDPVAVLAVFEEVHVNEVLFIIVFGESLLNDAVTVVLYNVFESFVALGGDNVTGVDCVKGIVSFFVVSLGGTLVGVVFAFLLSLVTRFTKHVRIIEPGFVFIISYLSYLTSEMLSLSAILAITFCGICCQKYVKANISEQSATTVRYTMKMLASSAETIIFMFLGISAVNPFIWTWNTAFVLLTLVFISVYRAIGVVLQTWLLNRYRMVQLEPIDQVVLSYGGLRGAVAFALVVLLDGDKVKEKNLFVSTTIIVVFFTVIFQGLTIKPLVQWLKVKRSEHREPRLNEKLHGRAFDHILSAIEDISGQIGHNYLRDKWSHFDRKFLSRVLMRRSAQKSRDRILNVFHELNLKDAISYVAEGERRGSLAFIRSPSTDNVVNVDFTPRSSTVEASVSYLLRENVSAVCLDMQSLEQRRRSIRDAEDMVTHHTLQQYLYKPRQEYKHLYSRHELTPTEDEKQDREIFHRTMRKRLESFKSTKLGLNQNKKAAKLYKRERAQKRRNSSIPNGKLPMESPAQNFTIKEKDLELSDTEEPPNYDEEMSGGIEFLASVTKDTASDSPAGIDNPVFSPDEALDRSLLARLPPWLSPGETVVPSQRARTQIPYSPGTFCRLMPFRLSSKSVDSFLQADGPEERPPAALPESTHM

The cases that follow already have their IC50 on record.
compound="Cc1cc(-n2cccc2)c(S(C)(=O)=O)cc1C(=O)NC(=N)N [ENIPORIDE]" experimentaltarget="Sodium/hydrogen exchanger 3 (Homo sapiens)" val="100 to 460 µM"
compound=Cc1ccc(F)cc1[C@H]1C/C(=N\N=C(N)N)c2c(C)cccc2C1 experimentaltarget="Sodium/hydrogen exchanger 3 (Homo sapiens)" val="> 30 µM"

Turning now to a further record.
Req: Which measured IC50 value corresponds to CC(C)c1ccc(C(=O)NC(=N)N)cc1S(C)(=O)=O [CARIPORIDE] ?
Resp: 1 to 100 µM
